Sourced from PubChem BioAssay AID1645848

Conditions: buffer; pH 7.4; 6.0 h; 150.0 µM
measurement label: solubility kinetic (µg/mL)
The reply should be a number in µg/mL, with the unit left off.

For `COc1cc2c(cc1Oc1cccc(N(C)C)c1)NC(=O)C21CCN(c2cnccn2)CC1` the compound record lists solubility kinetic as 2.21

----------
Details: buffer; pH 7.4; 6.0 h; 150.0 µM
measurement label: solubility kinetic (µg/mL)
The reply should be a number in µg/mL, with the unit left off.

Example results:
- COc1cc2c(C(=O)N3CCN(c4cccc(C(F)(F)F)c4)CC3)cn(CC(C)C)c(=O)c2cc1OC: 4.92
- Cc1cc(C)nc(NC(=S)N2CCN(c3nccc(C(F)(F)F)n3)CC2)c1: 7.21
- CCOc1ccc(CCNC(=O)c2cc3ccncc3n2Cc2cccc(C)c2)cc1OCC: 55.7
- Cc1ccc(-c2nn(C(C)(C)C)c3ncnc(N)c23)cc1: 2.5
- CC(Nc1nc(N2CCN(S(C)(=O)=O)CC2)nc2ccccc12)c1ccccc1 (stereo unspecified): 11

For COC(=O)C1=COC(C)C2CN3CCc4c([nH]c5cc(OC)c(OC)cc45)C3CC12 (stereo unspecified) the compound record lists solubility kinetic as 46.9

For CC(C)(C)C(=O)C(Oc1ccc(Cl)cc1)n1ccnc1 (stereo unspecified) the compound record lists solubility kinetic as 29

For `COCCNC(=O)c1ccc(-c2ncc3cnc(-c4cccc(F)c4)cn23)cc1` the compound record lists solubility kinetic as 28.1

For `O=C(CCCN1CCC(O)(c2ccc(Cl)cc2)CC1)c1ccc(F)cc1` the compound record lists solubility kinetic as 6.42

----------
Conditions: buffer; pH 7.4; 6.0 h; 150.0 µM
measurement label: solubility kinetic

For COc1ccc(-n2nc(C3CCCN(C(=O)c4ccccc4)C3)[nH]c2=O)cc1 (stereo unspecified) the compound record lists solubility kinetic as > 56 µg/mL

For O=C(NC1CCCc2c1cnn2-c1ccc(F)cc1F)c1ccc(C2(C(F)(F)F)N=N2)cc1 (stereo unspecified) the compound record lists solubility kinetic as < 1 µg/mL

For `CC[C@H](NC(=O)c1c(O)c(-c2ccccc2)nc2ccccc12)c1ccccc1` the compound record lists solubility kinetic as 31.7 µg/mL

For `O=C(Nc1nc(-c2ccccc2)cs1)c1ccncc1NS(=O)(=O)c1ccc(-c2ccccc2)cc1` the compound record lists solubility kinetic as < 1 µg/mL

For `O=C1CCCC2=C1C1(CCSCC1)N=C(Nc1nc3ccccc3o1)N2` the compound record lists solubility kinetic as < 1 µg/mL

For `COc1cc(/C=C2\C(=O)Nc3ccccc32)ccc1O` the compound record lists solubility kinetic as 15 µg/mL

----------
Details: buffer; pH 7.4; 6.0 h; 150.0 µM
Recorded measurements of log10 solubility kinetic, one per entry
log10 solubility kinetic, µg/mL

* O=C(NCc1ccc(S(=O)(=O)c2cccc(C(F)(F)F)c2)cc1)c1cnc2[nH]ncc2c1 | 0.77
* O=C(NCCc1ccccc1)C1CCN(c2nc(-c3ccc(Br)cc3)cs2)CC1 | 0.65
* O=S(=O)(Nc1ccccc1)c1ccc(NCc2ccc(Br)cc2O)cc1 | 0.15
* Cc1ccccc1N(C)C1CN([S+](=O)([O-])c2cccc(C(F)(F)F)c2)C1 | 0.15
* Cc1ccc(S(=O)(=O)Nc2ccccc2C(=O)Nc2nccs2)cc1 | 0.86
* NC(=O)C1CCN(c2nc(-c3cccc([N+](=O)[O-])c3)cs2)CC1 | 1.45

For `Cn1nnnc1Sc1ncnc2sc(-c3ccccc3)cc12` the molecule record lists log10 solubility kinetic as -1.06

For `O=S(=O)(Nc1nccs1)c1ccc(NCc2ccc(Cl)cc2O)cc1` the molecule record lists log10 solubility kinetic as 0.12

For `CS(=O)(=O)c1ccc2nc(NC(=O)C3CC3)sc2c1` the molecule record lists log10 solubility kinetic as 1.36

For `CCCn1cnc2cc(NCc3ccc(OC)cc3OC)ccc21` the molecule record lists log10 solubility kinetic as 1.61

For `[2H]C([2H])(Nc1nc(-c2ccccc2C([2H])(C([2H])([2H])[2H])C([2H])([2H])[2H])ncc1C)c1ccc(-n2ccnn2)cc1` the molecule record lists log10 solubility kinetic as 1.13

For CCOC(=O)NNc1ccc(N(CC)CC(C)O)nn1 (configuration not stated) the molecule record lists log10 solubility kinetic as 0.67

----------
Recorded measurements of solubility kinetic, one per entry
Settings: buffer; pH 7.4; 6.0 h; 150.0 µM
The reply should be a number in µg/mL, with the unit left off.

Example results:
* Cc1ccc(C(=O)Nc2nc(-c3ccccn3)cs2)cc1S(=O)(=O)N1CCOCC1 | 7.21
* Cc1ccc(S(=O)(=O)Nc2cnccc2C(=O)Nc2nc(-c3cnn(C)c3)cs2)cc1 | 25.4
* O=C(NCc1cccnc1)c1nc(-c2ccc(Cl)nc2)c2cnccn12 | 4.69

# input for lookup
For N=c1c2c(ncn1-c1ccccc1)Oc1ccc3ccccc3c1C2c1ccc2c(c1)CCO2 (stereo not given) the compound record lists solubility kinetic as 2

----------
Conditions: buffer; pH 7.4; 6.0 h; 150.0 µM
Cut-off 7 µg/mL on solubility kinetic, inclusive. At or above means label 1; below means label 0.

Please tell me: is the molecule `NS(=O)(=O)c1ccc(Cc2c(-c3cccc(-c4ccccc4)c3)nn(-c3nc(C(=O)O)cs3)c2CC2CC2)cc1` at or over 7 µg/mL in terms of solubility kinetic? label 1

Please tell me: is the molecule `Cc1ccc(-c2cc(C(=O)NCc3cnn(C)c3C)c3cc(Br)ccc3n2)cc1` at or over 7 µg/mL in terms of solubility kinetic? label 0

----------
Details: buffer; pH 7.4; 6.0 h; 150.0 µM
measurement label: solubility kinetic

- Cc1ccc(S(=O)(=O)Nc2cnccc2C(=O)Nc2ccc(-c3nc4ccccc4[nH]3)cc2)cc1: < 1 µg/mL
- CCOc1ccc(NC(=O)CC2C(=O)N(c3ccc(F)cc3)C(=O)N2CCc2sccc2C)cc1 (centres undefined): < 1 µg/mL
- Cc1ccc(-c2cc(C(=O)Nc3ccc(S(C)(=O)=O)cc3)c3ccccc3n2)cc1C: < 1 µg/mL

For `CN1C(=O)c2ccccc2[S@](=O)c2ccc(C(=O)NCc3ccc(Cl)cc3)cc21` the compound record lists solubility kinetic as 4.37 µg/mL

For `O=C1CN(C(=O)CCC(=O)N2CCc3c(nc4cc(-c5ccccc5)[nH]n4c3=O)C2)c2ccccc2N1` the compound record lists solubility kinetic as 15.6 µg/mL

For `O=C(Nc1ncc(Cc2ccc(C(F)(F)F)cc2)s1)c1ncc(-c2ccccc2)[nH]1` the compound record lists solubility kinetic as < 1 µg/mL

For `CCN(CC)CCOc1ccc2c(=O)c3ccc(Cl)cc3n(CCN(CC)CC)c2c1` the compound record lists solubility kinetic as > 66 µg/mL

For O=c1[nH]c(C2CCCN(CC3CCCCC3)C2)nn1-c1ccc(Cl)cc1 (centres undefined) the compound record lists solubility kinetic as < 1 µg/mL

For CC1(C)CC2CC(C)(CN2S(=O)(=O)c2ccc(C(=O)Nc3ccc(Cl)cc3)cc2)C1 (centres undefined) the compound record lists solubility kinetic as < 1 µg/mL

----------
Conditions: buffer; pH 7.4; 6.0 h; 150.0 µM
Recorded measurements of solubility kinetic, one per entry
The reply should be a number in µg/mL, with the unit left off.

• CNCc1ccc(-c2cc(-c3nc(-c4ccc(S(=O)(=O)C(C)C)cc4)cnc3N)on2)cc1 = 27.3
• COc1ccc(C(=O)NC2CCCc3c2[nH]c2ccccc32)cc1OC (stereo not given) = 4.79
• Cc1cccc(-n2cnc3cc(C(=O)N4CCC(Br)CC4)ccc32)c1 = 35.2
• O=C(Nc1ccc(S(=O)(=O)Nc2nccs2)cc1)c1cc(-c2ccccc2)nc2ccccc12 = 0.098

For `O=C(Nc1ccccc1)C1CCN(c2nc(-c3ccc(Br)cc3)cs2)CC1` the molecule record lists solubility kinetic as 5.11

For `COc1ccc(CNc2ccc(S(=O)(=O)Nc3nccs3)cc2)cc1O` the molecule record lists solubility kinetic as 7.85

For `Fc1cc(F)cc(Nc2nc(-c3ccncc3)nc3ccccc23)c1` the molecule record lists solubility kinetic as 2.59

For `CC(=O)c1c(C)[nH]c(C(=O)Nc2cccc([S+](=O)([O-])N3CC[C@@H](F)C3)c2)c1C` the molecule record lists solubility kinetic as 23.3

For `COc1ccc(-c2noc([C@@H]3Cc4nc[nH]c4CN3C(=O)NC3CCCCC3)n2)cc1` the molecule record lists solubility kinetic as 30.5

----------
Settings: buffer; pH 7.4; 6.0 h; 150.0 µM
Recorded measurements of solubility kinetic, one per entry

* COc1cc2c(cc1-c1c(C)noc1C)ncc1[nH]c(=O)n([C@H](C)c3ccccn3)c12 | > 61 µg/mL
* CC(=O)c1c(C)[nH]c(C(=O)Nc2cccc([S+](=O)([O-])Nc3ccc(C#N)cc3)c2)c1C | 36.8 µg/mL
* CNc1nc(-c2ccc3c(N)n[nH]c3c2)cc(N2C[C@@H](C(=O)NC3CCCCC3)CC[C@H]2C)n1 | 15.2 µg/mL
* NC(=O)C1CCN(c2nccc(Cl)n2)CC1 | > 35 µg/mL
* COc1cc(CNCCO)cc(Cl)c1OCc1ccc(Cl)cc1Cl.Cl | 40 µg/mL

For `Cc1ccc2nc(-c3cc(NC(=O)c4ccc5c(c4)OCCO5)ccc3Cl)oc2c1` the compound record lists solubility kinetic as < 1 µg/mL

For `Fc1ccc(Oc2nc(-c3ccncc3)nc3ccccc23)cc1F` the compound record lists solubility kinetic as 6.95 µg/mL

For `Cc1ccc(S(=O)(=O)Nc2cc(Br)ccc2C(=O)Nc2nc(-c3ccccc3)cs2)cc1` the compound record lists solubility kinetic as < 1 µg/mL

For `Cc1noc(C)c1C(=O)N1CCC2(CC1)CCN(C(c1ccccc1)c1ccccc1)CC2` the compound record lists solubility kinetic as 22 µg/mL

For `CC(C)CC(=O)Nc1n[nH]c2c1CN(C(=O)C1CCN(C)CC1)C2(C)C` the compound record lists solubility kinetic as > 53 µg/mL

For `O=S(=O)(c1ccc(Cl)cc1)c1ccccn1` the compound record lists solubility kinetic as 31.8 µg/mL

For O=C1Nc2ccccc2C12CC2c1cc(Cl)c(O)c(Cl)c1 (stereo unspecified) the compound record lists solubility kinetic as < 1 µg/mL

For `Cc1c(NC2=C(Cl)C(=O)N(c3ccccc3)C2=O)c(=O)n(-c2ccccc2)n1C` the compound record lists solubility kinetic as < 1 µg/mL

For `O=C1CCCC2=C1C1(CCCC1)N=C(Nc1nc3cc(Br)ccc3o1)N2` the compound record lists solubility kinetic as < 1 µg/mL

For `CCS(=O)(=O)c1cccc(C(=O)Nc2ccc(-c3nc4ccccc4s3)c(O)c2)c1` the compound record lists solubility kinetic as < 1 µg/mL

For Cc1cccc(N2CCN(C(=O)c3ccc4c(c3)C(O)CCCCCN4C)CC2)c1 (stereo unspecified) the compound record lists solubility kinetic as 14.8 µg/mL
